Values were extracted from patent US20240368159A1.

pIC50: −log10 of the molar value.
What follows is a record of pIC50 for HPK1 protein (Homo sapiens).

Take a look at these entries with their results.
molecule	testedSystem	pIC50
CCc1c[nH]c2ncc(-c3cccc(N4CCN(C(=O)CCCCCCCN(C)c5cccc6c5CN(C5CCC(=O)NC5=O)C6=O)CC4=O)c3)c(Cl)c12 (stereo not drawn) [Example 11]	HPK1 protein (Homo sapiens)	6.00 to 7.00
CCc1c[nH]c2ncc(-c3cccc(N4CCN(CCOC5CCN(c6cc7c(cc6F)C(=O)N(C6CCC(=O)NC6=O)C7=O)CC5)CC4=O)c3)c(Cl)c12 (stereo not drawn) [Example 26]	HPK1 protein (Homo sapiens)	7.00 to 8.00
O=C1CCC(N2Cc3cc(N4CCN(CCCN5CCN(c6cccc(-c7cnc8[nH]cc(C9CC9)c8c7Cl)n6)C(=O)C5)CC4)ccc3C2=O)C(=O)N1 (stereo not drawn) [Example 81]	HPK1 protein (Homo sapiens)	≥ 8.00
CCc1c[nH]c2ncc(-c3cccc(N4CCN(C(=O)CCCCCCCOc5ccc6c(c5)C(=O)N(C5CCC(=O)NC5=O)C6)CC4=O)c3)c(Cl)c12 (stereo not drawn) [Example 65]	HPK1 protein (Homo sapiens)	7.00 to 8.00
O=C1CCC(N2C(=O)c3ccc(C4=CCN(CCCN5CCN(c6cccc(-c7cnc8[nH]cc(C9CC9)c8c7Cl)n6)C(=O)C5)CC4)cc3C2=O)C(=O)N1 (stereo not drawn) [Example 85]	HPK1 protein (Homo sapiens)	≥ 8.00

The record that follows has no pIC50 shown yet.
Query: Hello, I am looking for reported pIC50 with HPK1 protein (Homo sapiens) for O=C1CCC(N2C(=O)c3cc(F)c(N4CCC(OCCCN5CCN(c6cccc(-c7cnc8[nH]cc(CC(F)F)c8c7Cl)c6)C(=O)C5)CC4)cc3C2=O)C(=O)N1 (stereo not drawn) [Example 39] . Could you help?
Reply: 6.00 to 7.00

---

- testedSystem: HPK1 protein (Mus musculus)
- Construct: the CD3+ T cell population was isolated from spleenocytes of mice; endogenous in cells; host or cells: primary mouse splenic CD3+ (pan) T cells
- Sequence (P70218 whole entry): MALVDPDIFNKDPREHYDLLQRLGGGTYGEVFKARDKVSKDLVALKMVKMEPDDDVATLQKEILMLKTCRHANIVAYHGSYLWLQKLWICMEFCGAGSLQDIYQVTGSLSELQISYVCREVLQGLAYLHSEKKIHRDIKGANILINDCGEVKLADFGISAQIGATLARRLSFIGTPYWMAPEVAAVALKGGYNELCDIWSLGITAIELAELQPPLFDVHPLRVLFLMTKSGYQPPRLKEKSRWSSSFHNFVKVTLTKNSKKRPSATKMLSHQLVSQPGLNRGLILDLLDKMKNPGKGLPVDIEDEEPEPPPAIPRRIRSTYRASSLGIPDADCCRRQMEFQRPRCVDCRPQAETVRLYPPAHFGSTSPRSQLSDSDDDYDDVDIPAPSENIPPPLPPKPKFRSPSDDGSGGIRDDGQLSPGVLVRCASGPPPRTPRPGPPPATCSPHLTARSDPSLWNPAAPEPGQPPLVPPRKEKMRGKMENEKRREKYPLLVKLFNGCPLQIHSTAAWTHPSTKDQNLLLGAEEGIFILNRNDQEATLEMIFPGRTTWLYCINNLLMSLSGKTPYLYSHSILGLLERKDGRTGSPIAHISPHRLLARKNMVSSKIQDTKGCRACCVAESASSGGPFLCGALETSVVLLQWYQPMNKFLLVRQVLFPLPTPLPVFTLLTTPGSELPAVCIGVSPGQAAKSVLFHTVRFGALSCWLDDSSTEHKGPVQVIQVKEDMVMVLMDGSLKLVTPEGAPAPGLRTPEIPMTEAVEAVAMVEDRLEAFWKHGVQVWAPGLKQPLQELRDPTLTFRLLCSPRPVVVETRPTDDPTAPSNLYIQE
- procedureSummary: HPK1 protein degradation in mouse pan T cell (western blot)
- Format: cell-based
- statedConditions: 18 h incubation
assayEndpoint: Dmax (%)
Expressed in %, but write only the number.

Check out these entries, answers already filled in.
molecule	unitText	Dmax
CCc1c[nH]c2ncc(-c3cccc(N4CCN(CCOCCN5CCN(c6cc7c(cc6F)C(=O)N(C6CCC(=O)NC6=O)C7=O)CC5)CC4=O)c3)c(Cl)c12 (centres unmarked) [Example 33]	%	60
O=C1CCC(N2C(=O)c3cc(F)c(N4CCN(C5CC(CN6CCN(c7cccc(-c8cnc9[nH]cc(C%10CC%10)c9c8Cl)c7)C(=O)C6)C5)CC4)cc3C2=O)C(=O)N1 (centres unmarked) [Example 51]	%	95
CCc1c[nH]c2ncc(-c3cccc(N4CCN(CCCOC5CCN(c6ccc7c(c6)C(=O)N(C6CCC(=O)NC6=O)C7=O)CC5)CC4=O)c3)c(Cl)c12 (centres unmarked) [Example 35]	%	95
CCc1c[nH]c2ncc(-c3cccc(N4CCN(CCC(=O)N5CCN(c6cc7c(cc6F)C(=O)N(C6CCC(=O)NC6=O)C7=O)CC5)CC4=O)c3)c(Cl)c12 (centres unmarked) [Example 30]	%	80
CCc1c[nH]c2ncc(-c3cccc(N4CCN(CCOC5CCN(c6cc7c(cc6F)C(=O)N(C6CCC(=O)NC6=O)C7=O)CC5)CC4=O)c3)c(Cl)c12 (centres unmarked) [Example 26]	%	91
CCc1c[nH]c2ncc(-c3cccc(N4CCN(CCCN5CCN(c6cc7c(cc6F)C(=O)N(C6CCC(=O)NC6=O)C7=O)CC5)CC4=O)c3)c(Cl)c12 (centres unmarked) [Example 25]	%	96
O=C1CCC(c2ccc(N3CCN(CCCN4CCN(c5cccc(-c6cnc7[nH]cc(C8CC8)c7c6Cl)c5)C(=O)C4)CC3)cc2)C(=O)N1 (centres unmarked) [Example 75]	%	55
O=C1CCC(N2Cc3ccc(N4CCC(OCC(=O)N5CCN(c6cccc(-c7cnc8[nH]cc(C9CC9)c8c7Cl)c6)C(=O)C5)CC4)cc3C2=O)C(=O)N1 (centres unmarked) [Example 46]	%	90

Query: GET /values?readout=Dmax&system=HPK1 protein (Mus musculus)&item= O=C1CCC(Nc2ccc(C3CCN(CCCN4CCN(c5cccc(-c6cnc7[nH]cc(C8CC8)c7c6Cl)c5)C(=O)C4)CC3)cc2)C(=O)N1 (centres unmarked) [Example 78]
Reply: 88

Query: Checklist item: Dmax tested on HPK1 protein (Mus musculus), entry O=C1CCC(N2C(=O)c3cc(F)c(N4CCN(CCCN5CCN(c6cccc(-c7cnc8[nH]cc(C9CC9)c8c7Cl)n6)C(=O)C5)CC4)cc3C2=O)C(=O)N1 (centres unmarked) [Example 53] , value?
Reply: 95

---

# key: entry, value: Dmax
- testedSystem: HPK1 protein (Mus musculus)
- Construct: the CD3+ T cell population was isolated from spleenocytes of mice; endogenous in cells; host or cells: primary mouse splenic CD3+ (pan) T cells
- procedureSummary: HPK1 protein degradation in mouse pan T cell (western blot)
- Assay type: cell-based
- statedConditions: 18 h incubation
- Protocol: HPK1 protein degradation in mouse pan T cell: the CD3+ T cell population was isolated from spleenocytes of mice by using Pan T cell isolation kit from Miltenyi Biotec (130-095-130) following manufacture's instruction. […] The protein concentration was determined by BCA protein assay kit from Thermo (23227). The HPK1 protein level was determined by western blots, using anti-human HPK1 polyclonal antibody from CST (4472). […]
Lab book: enter the figure in %, no units written.

Examples from the recorded data:
compound	Dmax (%)
CCc1c[nH]c2ncc(-c3cccc(N4CCN(CCCN5CC=C(c6ccc7c(N8CCC(=O)NC8=O)nn(C)c7c6)CC5)CC4=O)c3)c(Cl)c12	91
O=C1CCC(N2C(=O)c3ccc(N4CCC(OCC(=O)N5CCN(c6cccc(-c7cnc8[nH]cc(C9CC9)c8c7Cl)c6)C(=O)C5)CC4)cc3C2=O)C(=O)N1 (stereo not drawn)	95
CCc1c[nH]c2ncc(-c3cccc(N4CCN(C(=O)COC5CCN(c6ccc7c(c6)C(=O)N(C6CCC(=O)NC6=O)C7=O)CC5)CC4=O)c3)c(Cl)c12 (stereo not drawn)	80
CCc1c[nH]c2ncc(-c3cccc(N4CCN(CC5CCN(c6cc7c(cc6F)C(=O)N(C6CCC(=O)NC6=O)C7=O)CC5)CC4=O)c3)c(Cl)c12 (stereo not drawn)	90
O=C1CCC(N2C(=O)c3cc(F)c(N4CCN(CCCS(=O)(=O)N5CCN(c6cccc(-c7cnc8[nH]cc(C9CC9)c8c7Cl)c6)C(=O)C5)CC4)cc3C2=O)C(=O)N1 (stereo not drawn)	95

Now consider a different compound.
Query: Quick one: Dmax for O=C1CCC(N2C(=O)c3cc(F)c(N4CCC5(CC4)CN(CCN4CCN(c6cccc(-c7cnc8[nH]cc(C9CC9)c8c7Cl)c6)C(=O)C4)C5)cc3C2=O)C(=O)N1 (stereo not drawn) ?
Reply: 95

---

- testedSystem: HPK1 protein (Homo sapiens)
- Sequence (Q92918 1-346 limits assumed): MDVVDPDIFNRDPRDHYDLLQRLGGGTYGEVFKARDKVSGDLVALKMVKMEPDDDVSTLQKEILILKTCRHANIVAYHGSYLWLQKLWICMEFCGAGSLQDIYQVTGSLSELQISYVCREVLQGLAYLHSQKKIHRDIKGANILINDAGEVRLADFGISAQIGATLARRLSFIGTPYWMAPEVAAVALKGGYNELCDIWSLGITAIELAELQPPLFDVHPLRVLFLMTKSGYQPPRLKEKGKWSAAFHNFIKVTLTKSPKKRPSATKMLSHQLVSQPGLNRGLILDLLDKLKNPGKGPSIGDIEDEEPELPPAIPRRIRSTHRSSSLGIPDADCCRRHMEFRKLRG
assayEndpoint: IC50

Reference set (3 entries):
compound	IC50
O=C1CCC(N2C(=O)c3cc(F)c(N4CCN(C5CC(CN6CCN(c7cccc(-c8cnc9[nH]cc(C%10CC%10)c9c8Cl)c7)C(=O)C6)C5)CC4)cc3C2=O)C(=O)N1 (stereo not drawn)	10 to 100 nM
O=C1CCC(c2ccc(C3CCN(CCCN4CCN(c5cccc(-c6cnc7[nH]cc(C8CC8)c7c6Cl)c5)C(=O)C4)CC3)cc2)C(=O)N1 (stereo not drawn)	≤ 10 nM
CCc1c[nH]c2ncc(-c3cccc(N4CCN(CCC(=O)N5CCN(c6cc7c(cc6F)C(=O)N(C6CCC(=O)NC6=O)C7=O)CC5)CC4=O)c3)c(Cl)c12 (stereo not drawn)	10 to 100 nM

Query: I'm curious: which IC50 was measured for CCc1c[nH]c2ncc(-c3cc(N4CCN(C(=O)CN(C)C5CCN(c6cc7c(cc6F)C(=O)N(C6CCC(=O)NC6=O)C7=O)CC5)CC4=O)ccc3F)c(Cl)c12 (stereo not drawn) tested on HPK1 protein (Homo sapiens)?
Reply: 10 to 100 nM

Query: # get_value(readout= IC50, system= HPK1 protein (Homo sapiens)) for CCc1c[nH]c2ncc(-c3cccc(N4CCN(CCCOC5CCN(c6ccc7c(c6)C(=O)N(C6CCC(=O)NC6=O)C7=O)CC5)CC4=O)c3)c(Cl)c12 (stereo not drawn)
Reply: 10 to 100 nM

Query: Recall the recorded IC50 for O=C1CCC(N2C(=O)c3ccc(C4CCN(CCCN5CCN(c6cccc(-c7cnc8[nH]cc(C9CC9)c8c7Cl)n6)C(=O)C5)CC4)cc3C2=O)C(=O)N1 (stereo not drawn) with HPK1 protein (Homo sapiens) and state it.
Reply: ≤ 10 nM
